Target: T1, full length human tau protein 2N4R (hT40) (human, UniProt P10636 1-758)
T1 construct: recombinant; also called T441
T1 sequence (P10636 other isoform, or with tags, fused parts or gaps limits assumed): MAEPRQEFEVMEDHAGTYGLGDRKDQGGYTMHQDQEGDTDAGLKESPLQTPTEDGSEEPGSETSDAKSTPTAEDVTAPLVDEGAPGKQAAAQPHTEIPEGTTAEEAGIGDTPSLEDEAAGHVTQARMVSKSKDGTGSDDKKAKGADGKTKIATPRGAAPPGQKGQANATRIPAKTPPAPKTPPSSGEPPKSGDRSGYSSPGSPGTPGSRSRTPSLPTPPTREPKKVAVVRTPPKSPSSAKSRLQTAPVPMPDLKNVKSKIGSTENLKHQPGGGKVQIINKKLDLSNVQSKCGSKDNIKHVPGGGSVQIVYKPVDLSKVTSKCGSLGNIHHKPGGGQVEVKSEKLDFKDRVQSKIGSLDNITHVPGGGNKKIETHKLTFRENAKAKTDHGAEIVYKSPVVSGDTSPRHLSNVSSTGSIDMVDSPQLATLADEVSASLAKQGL
Test: SPR, scAb captured, tau analyte
attribute_measured: kon (M⁻¹ s⁻¹)

* CE2 scAb (scFv, not shown: small tags and cut ends, scAb) scFv: QVQLQESGPSLVKPSQTLSLTCTVSGFSLTNYPVGWVRQAPGKALEWIGNIENDGSANYASALKSRLSITRDTSKNQVSLSLSSATTEDTAVYYCGREFGGSDGYTYFVDIDYWGPGLLVTVSSEGKSSGASGESKVDDQAVLTQPSSVSKSLGQSVSITCSGSSSNVGYGNYVSWFQQVPGSAPKILIYGATSRASGVPDRFSGSRSGNTATLTITSLQAEDEADYYCASYDGSSSGVFGSGTRLTVLG | 214000
* S1G2 scAb (scFv, not shown: small tags and cut ends, scAb) scFv: QVQLQESGPSLVKPSQTLSLTCTVSGFSLTSNSVGWVRQAPGKAPEWVAGIDTDGEEGYNPALNSRLSITRDTSKSQVSLSLSSVTSEDTAVYYCGRSYRADGLAYGYVQAIDYWGPGLLVTVSSEGKSSGASGESKVDDQAVVTQPSSVSGSLGQRVSITCSGSFIGISSVGWFQQLPGSGLRTIIVASDGRPSGVPDRFSMSKSGNTATLTISSLQAEDEADYFCGSSDRTPYTGVFGSGTRLTVLG | 1.06e+06
* 3aH6 scAb (scFv, not shown: small tags and cut ends, scAb) scFv: QVQLQESGPSLVKPSQTLSLTCTVSGFSLSSNGVGWVRQAPGKVPEWLGDISSVGKKYANPALKSRLSFTRDTSKSQVSLSLSSVTTEDTAVYYCVKCRDGGVTYGYDIDYWGPGLLVTASSEGKSSGASGESKVDDQAVVTQPSSVSGSLGQSVSITCSGSSGNVGYGDYVSWFQQFHGSAPKLLIYGATNLASGVPARFSGSRSGNTATLTISSLHAEDEADYYCASYDSSSGGVFGSGTRLTVLG | 2.76e+06
* 412E10 scAb (scFv, not shown: small tags and cut ends, scAb) scFv: QVQLQESGPSLVKPSQTLSLTCTVSGFSVISDSVAWVRQAPGKVPEWLGASGSSGNKYYNPALKSRLSITRDTSKSQVSLSLSSVTTEDTAVYYCARGIIAGVDVWGRGLLVTVSSEGKSSGASGESKVDDQAVLTQPSSVSGSLGQRVSITCSGSSSNVGYGNYVGWYQQVPGSAPKLLIYGTAIRASGVPDRFSGSRSGDTATLTITSLQAEDEADYYCASYQSNYAFFGSGTRLTVLG | 271000
* 3aA6 scAb (scFv, not shown: small tags and cut ends, scAb) scFv: QVRLQESGSSLVKPSQTLSLVCTVSGFPLTSNAVGWVRQAPGKAPEWLGLIDIDGDTAYNPALESRLSITRDTSKSQVSLSLSSVAIEDTAVYYCARHYDKWGYADSIDYWGPGLLVTVSSEGKSSGASGESKVDDQALLTQPSSVFGSLGQRVSITCSGSSSNVGYGDYVGWYQQVPGSAPKLLIYDATTRASGVPDRFSGSRSGNTATLTISSLQAEDEADYYCASYQNERSGVFGSGTRLTVLG | 19000
